Experiment: method code SF, from DOI: 10.1016/j.ejps.2005.05.001, PMID: 15955679
Details: pH 7.4
Readout label: logD
When you answer, write just the number.

[Q] Bench note: what logD did `CC(=O)c1ccc(=O)[nH]c1C` show?
[A] -0.3

###

Measured logP of individual entries
Assay: method code SF, from DOI: 10.1016/j.ejps.2005.05.001, PMID: 15955679
When you answer, write just the number.

// known answers, use as guide
- Compound structure string: "CC(=O)c1ccc(-c2ccccc2)[nH]c1=O"
  logP: 1.74
- Compound structure string: "O=C(c1ccccc1)c1cc2c([nH]c1=O)CCCC2"
  logP: 2.1

[Q] Bench note: what logP did `O=c1[nH]c2c(cc1S(=O)(=O)c1ccccc1)CCCC2` show?
[A] 1.76

###

Lab note: compare logP against 0.02. Equal or greater, write criterion met. Smaller, write criterion not met.

Example entries begin here.
- Compound structure string: "COC(=O)c1cc(C(C)=O)c(C)[nH]c1=O"
  Class label: "criterion not met"
- Compound structure string: "CCOC(=O)c1cc(C#N)c(=O)[nH]c1C"
  Class label: "criterion met"
- Compound structure string: "CC(=O)c1cc(C(=O)O)c(=O)[nH]c1C"
  Class label: "criterion not met"
- Compound structure string: "Cc1ccc(C#N)c(=O)[nH]1"
  Class label: "criterion not met"
- Compound structure string: "N#Cc1ccc(-c2ccccn2)[nH]c1=O"
  Class label: "criterion met"

[Q] Textbook exercise: given the entry `Cc1[nH]c(=O)c(C#N)cc1C(=O)O` , state whether its logP is greater than or equal to 0.02.
[A] criterion met

[Q] Textbook exercise: given the entry `Cc1[nH]c(=O)c(C#N)cc1C(=O)OCC(C)C` , state whether its logP is greater than or equal to 0.02.
[A] criterion met

[Q] Textbook exercise: given the entry `N#Cc1ccc(-c2cccnc2)[nH]c1=O` , state whether its logP is greater than or equal to 0.02.
[A] criterion met
